# key: entry, value: pest or weed control at 70 g/ha
Tested on: Key Grass and Sedge Weeds as well as Grass Crops
Assay: Post-Emergent Test II: postemergent herbicidal activity, visual rating after 14 d (Table 8)
Format: in vivo
Conditions: post-emergence, 336 h, barnyardgrass (Echinochloa crus-galli), 70 g ai/ha, read-out: Visual Growth Reduction (%) 14 Days After Application ECHCG

Examples with answers:
COC(=O)c1nc(-c2ccc3c(c2)OC(F)(F)O3)nc(N)c1OC [Compound 62]: 85 to 94%
Nc1c(F)c(-c2cc3c(cc2F)OC(F)(F)O3)nc(C(=O)O)c1Cl [Compound 13]: 95 to 100%
COC(=O)c1nc(-c2ccc(F)c3c2OC(F)(F)O3)c(F)c(N)c1Cl [Compound 76]: 0 to 29%
COC(=O)c1nc(-c2ccc3c(c2F)OC(F)(F)O3)c(F)c(N)c1Cl [Compound 10]: 95 to 100%

// below: pest or weed control at 70 g/ha requested for another compound
Please fill in: pest or weed control at 70 g/ha reported for COc1c(N)nc(-c2ccc3c(c2)OC(F)(F)O3)nc1C(=O)O [Compound 63] = 95 to 100%

====

Tested on: Key Broadleaf Weed and Crop Species
Test: Post-Emergent Test II: postemergent herbicidal activity, visual rating after 14 d (Table 7)
Format: in vivo
Conditions: post-emergence, 336 h, velvetleaf (Abutilon theophrasti), 70 g ai/ha, read-out: Visual Growth Reduction (%) 14 Days After Application ABUTH
observation.type: pest or weed control at 70 g/ha

Examples with answers:
COC(=O)c1nc(-c2ccc(Br)c3c2OC(F)(F)O3)c(F)c(N)c1Cl: 85 to 94%
COc1c(C(=O)O)nc(-c2ccc3c(c2)OC(F)(F)O3)c(F)c1N: 60 to 74%
COC(=O)c1nc(-c2ccc(Cl)c3c2OC(F)(F)O3)c(Cl)c(N)c1Cl: 75 to 84%
COC(=O)c1nc(-c2cccc3c2OCO3)c(F)c(N)c1Cl: 75 to 84%
Nc1c(F)c(-c2ccc(F)c3c2OC(F)(F)O3)nc(C(=O)O)c1Cl: 60 to 74%

// below: pest or weed control at 70 g/ha requested for another molecule
Please fill in: pest or weed control at 70 g/ha reported for Nc1cc(-c2ccc3c(c2Cl)OC(F)(F)O3)nc(C(=O)O)c1Cl = 60 to 74%

====

System: Key Broadleaf Weed and Crop Species
Assay: Post-Emergent Test II: postemergent herbicidal activity, visual rating after 14 d (Table 7)
Format: in vivo
Settings: post-emergence, 336 h, velvetleaf (Abutilon theophrasti), 70 g ai/ha, read-out: Visual Growth Reduction (%) 14 Days After Application ABUTH
Protocol: Herbicidal evaluations were made visually on a scale of 0 to 100 where 0 represents no activity and 100 represents complete plant death. […] A weighed amount, determined by the highest rate to be tested, of each test compound was placed in a 25 mL glass vial and was dissolved in 4 mL of a 97:3 v/v mixture of acetone and DMSO to obtain concentrated stock solutions. […]
observation.type: pest or weed control at 70 g/ha

Please fill in: pest or weed control at 70 g/ha reported for Nc1cc(-c2cc(F)c3c(c2)OC(F)(F)O3)nc(C(=O)O)c1Cl [Compound 44] = 0 to 29%

Please fill in: pest or weed control at 70 g/ha reported for COC(=O)c1nc(-c2ccc3c(c2)OC(C)(C)O3)c(F)c(N)c1Cl [Compound 8] = 95 to 100%

Please fill in: pest or weed control at 70 g/ha reported for COC(=O)c1nc(-c2ccc3c(c2F)OC(F)(F)O3)c(F)c(N)c1Cl [Compound 10] = 95 to 100%

====

Tested on: Key Grass and Sedge Weeds as well as Grass Crops
Test: Post-Emergent Test II: postemergent herbicidal activity, visual rating after 14 d (Table 8)
Type: in vivo
Details: post-emergence, 336 h, maize, corn (Zea mays), 140 g ai/ha, read-out: Visual Growth Reduction (%) 14 Days After Application ZEAMX
# key: entry, value: pest or weed control at 140 g/ha

Examples with answers:
Nc1c(F)c(-c2cccc3c2OCO3)nc(C(=O)O)c1Cl: 0 to 29%
COC(=O)c1nc(-c2cc3c(cc2OC)OC(F)(F)O3)cc(N)c1Cl: 0 to 29%
COC(=O)c1nc(-c2c(F)cc3c(c2F)OCO3)cc(N)c1Cl: 75 to 84%
Nc1cc(-c2ccc3c(c2Cl)OC(F)(F)O3)nc(C(=O)O)c1Cl: 60 to 74%
Nc1cc(-c2ccc3c(c2F)OC(F)(F)O3)nc(C(=O)O)c1Cl: 75 to 84%

Please fill in: pest or weed control at 140 g/ha reported for Nc1c(F)c(-c2ccc(F)c3c2OC(F)(F)O3)nc(C(=O)O)c1Cl = 0 to 29%

Please fill in: pest or weed control at 140 g/ha reported for COc1c(C(=O)O)nc(-c2ccc3c(c2)OC(F)(F)O3)c(F)c1N = 75 to 84%

====

Tested on: Wheat and Barley and weed species
Assay: Post-Emergent Test III: postemergent herbicidal activity in wheat and barley, visual rating after 21 d and probit GR20/GR50/GR80/GR90 (Tables 9-13)
Format: in vivo
Conditions: APESV bentgrass (Apera spica-venti); growth reduction of 90%; probit analysis
observation.type: GR90 APESV

COC(=O)c1nc(-c2ccc3c(c2)OC(C)(C)O3)c(F)c(N)c1Cl: 46 g ai/ha
Nc1c(F)c(-c2ccc3c(c2F)OC(F)(F)O3)nc(C(=O)O)c1Cl: >70 g ai/ha

Please fill in: GR90 APESV reported for Nc1c(F)c(-c2ccc3c(c2)OC(F)(F)O3)nc(C(=O)O)c1Cl = >140 g ai/ha

Please fill in: GR90 APESV reported for Nc1c(F)c(-c2cc3c(cc2F)OC(F)(F)O3)nc(C(=O)O)c1Cl = >70 g ai/ha

Please fill in: GR90 APESV reported for Nc1cc(-c2cc3c(cc2F)OC(F)(F)O3)nc(C(=O)O)c1Cl = >140 g ai/ha

====

# key: entry, value: pest or weed control at 35 g/ha
System: Key Broadleaf Weed and Crop Species
Assay: Post-Emergent Test II: postemergent herbicidal activity, visual rating after 14 d (Table 7)
Type: in vivo
Settings: post-emergence, 336 h, wild poinsettia (Euphorbia heterophylla), 35 g ai/ha, read-out: Visual Growth Reduction (%) 14 Days After Application EPHHL

Examples with answers:
COC(=O)c1nc(-c2cc3c(cc2F)OCO3)c(F)c(N)c1Cl: 95 to 100%
Nc1c(F)c(-c2ccc(F)c3c2OC(F)(F)O3)nc(C(=O)O)c1Cl: 0 to 29%
COC(=O)c1nc(-c2ccc(Br)c3c2OC(F)(F)O3)c(F)c(N)c1Cl: 0 to 29%
COC(=O)c1nc(-c2cc3c(cc2F)OCO3)c(F)c(N)c1OC: 95 to 100%
Nc1cc(-c2cc(F)c3c(c2)OC(F)(F)O3)nc(C(=O)O)c1Cl: 0 to 29%
Nc1cc(-c2ccc3c(c2Cl)OC(F)(F)O3)nc(C(=O)O)c1Cl: 45 to 59%
C=Cc1c(C(=O)OC)nc(-c2cc3c(cc2F)OCO3)c(F)c1N: 95 to 100%
COC(=O)c1nc(-c2ccc3c(c2)OC(C)(C)O3)nc(N)c1OC: 60 to 74%
COC(=O)c1nc(-c2ccc3c(c2F)OC(F)(F)O3)nc(N)c1Cl: 95 to 100%
COC(=O)c1nc(-c2cc3c(cc2Cl)OC(F)(F)O3)cc(N)c1Cl: 0 to 29%

Please fill in: pest or weed control at 35 g/ha reported for COC(=O)c1nc(-c2ccc3c(c2)OC(C)(C)O3)c(F)c(N)c1Cl = 95 to 100%

Please fill in: pest or weed control at 35 g/ha reported for COC(=O)c1nc(-c2cc3c(cc2OC)OC(F)(F)O3)cc(N)c1Cl = 0 to 29%

Please fill in: pest or weed control at 35 g/ha reported for Cc1c(-c2cc(N)c(Cl)c(C(=O)O)n2)ccc2c1OC(F)(F)O2 = 0 to 29%

Please fill in: pest or weed control at 35 g/ha reported for COC(=O)c1nc(-c2cc3c(cc2F)OC(F)(F)O3)c(F)c(N)c1Cl = 75 to 84%

Please fill in: pest or weed control at 35 g/ha reported for COC(=O)c1nc(-c2ccc(I)c3c2OC(F)(F)O3)c(F)c(N)c1Cl = 0 to 29%

Please fill in: pest or weed control at 35 g/ha reported for Nc1c(F)c(-c2cc(F)c3c(c2)OC(F)(F)O3)nc(C(=O)O)c1Cl = 0 to 29%

Please fill in: pest or weed control at 35 g/ha reported for COC(=O)c1nc(-c2ccc3c(c2F)OC(F)(F)O3)cc(N)c1Cl = 95 to 100%

Please fill in: pest or weed control at 35 g/ha reported for COC(=O)c1nc(-c2ccc3c(c2)OC(F)(F)O3)nc(N)c1Cl = 75 to 84%
